# Test system: PC-3 [JPC-3]
# assay-text: relative viability (nuclei count vs DMSO), 5 days (fraction); higher = more cells survive
# condition-label: first compound 2 µM
experimental-readout: relative viability
I'd appreciate a reply containing only the number, no unit.

stdin: Name the reported relative viability value associated with the compound COCC1(CO)C(=O)C2CCN1CC2 (centres undefined) [PRIMA-1MET] + Cc1nc(Nc2ncc(C(=O)Nc3c(C)cccc3Cl)s2)cc(N2CCN(CCO)CC2)n1 [Dasatinib] (partner 0.075 µM)
stdout: 0.96

stdin: Consider the compound shown here: COCC1(CO)C(=O)C2CCN1CC2 (centres undefined) [PRIMA-1MET] + CC1(C)CCC(c2ccc(Cl)cc2)=C(CN2CCN(c3ccc(C(=O)NS(=O)(=O)c4ccc(N[C@H](CCN5CCOCC5)CSc5ccccc5)c(S(=O)(=O)C(F)(F)F)c4)cc3)CC2)C1 [Navitoclax] (partner 0.5 µM) What is its recorded relative viability?
stdout: 0.816

stdin: Entry COCC1(CO)C(=O)C2CCN1CC2 (centres undefined) [PRIMA-1MET] + COc1cccc2cc(-c3nc([C@H]4CC[C@H](C(=O)O)CC4)n4ncnc(N)c34)[nH]c12 [OSI-027] (partner 0.5 µM) : reported relative viability = ?
stdout: 0.816

stdin: Looking for the measured relative viability of COCC1(CO)C(=O)C2CCN1CC2 (centres undefined) [PRIMA-1MET] + CC(C)C[C@H](NC(=O)[C@H](Cc1ccccc1)NC(=O)c1cnccn1)B(O)O [Bortezomib] (partner 0.002 µM) , can you help?
stdout: 0.874

---

# Test system: NCI-H2009
# assay-text: relative viability (nuclei count vs DMSO), 5 days (fraction); higher = more cells survive
# condition-label: first compound 0.08 µM
experimental-readout: relative viability
Could you keep your reply to the number by itself?

stdin: Suppose we examine the compound COc1nc(C)cnc1NS(=O)(=O)c1cccnc1-c1ccc(-c2nnco2)cc1 [Zibotentan] + Cc1nc(Nc2ncc(C(=O)Nc3c(C)cccc3Cl)s2)cc(N2CCN(CCO)CC2)n1 [Dasatinib] (partner 0.075 µM) ; what relative viability value has been reported?
stdout: 0.287

stdin: Sample COc1nc(C)cnc1NS(=O)(=O)c1cccnc1-c1ccc(-c2nnco2)cc1 [Zibotentan] + COc1cccc2cc(-c3nc([C@H]4CC[C@H](C(=O)O)CC4)n4ncnc(N)c34)[nH]c12 [OSI-027] (partner 0.5 µM) — what was its relative viability?
stdout: 0.677

stdin: So what does the record say about relative viability for O=c1cc(-c2cccc3c2Sc2ccccc2S3)oc(N2CCOCC2)c1 + CC(C)C[C@H](NC(=O)[C@H](Cc1ccccc1)NC(=O)c1cnccn1)B(O)O [Bortezomib] (partner 0.002 µM) ?
stdout: 0.936

---

Assignment: determine reported relative viability for the given compounds.
# Test system: 201T
# assay-text: relative viability (nuclei count vs DMSO), 5 days (fraction); higher = more cells survive
# condition-label: first compound 0.8 µM
// no unit string in output, number only

stdin: So what's the measured relative viability for this one? COc1nc(C)cnc1NS(=O)(=O)c1cccnc1-c1ccc(-c2nnco2)cc1 [Zibotentan] + COc1cccc2cc(-c3nc([C@H]4CC[C@H](C(=O)O)CC4)n4ncnc(N)c34)[nH]c12 [OSI-027] (partner 0.5 µM)
stdout: 0.679

stdin: Fill in the blank: the reported relative viability of O=c1cc(-c2cccc3c2Sc2ccccc2S3)oc(N2CCOCC2)c1 + O=C(c1cc(Cc2n[nH]c(=O)c3ccccc23)ccc1F)N1CCN(C(=O)C2CC2)CC1 [Olaparib] (partner 8 µM) is ____.
stdout: 0.861

stdin: Suppose we examine the compound O=c1cc(-c2cccc3c2Sc2ccccc2S3)oc(N2CCOCC2)c1 + COc1cc2c(Oc3ccc(NC(=O)C4(C(=O)Nc5ccc(F)cc5)CC4)cc3F)ccnc2cc1OCCCN1CCOCC1 [Foretinib] (partner 0.25 µM) ; what relative viability value has been reported?
stdout: 0.787

The values you see were collected from the supplement of paper PMC10307832.
